# assay.target: Androgen receptor (Homo sapiens)
# Sequence (P10275 whole entry): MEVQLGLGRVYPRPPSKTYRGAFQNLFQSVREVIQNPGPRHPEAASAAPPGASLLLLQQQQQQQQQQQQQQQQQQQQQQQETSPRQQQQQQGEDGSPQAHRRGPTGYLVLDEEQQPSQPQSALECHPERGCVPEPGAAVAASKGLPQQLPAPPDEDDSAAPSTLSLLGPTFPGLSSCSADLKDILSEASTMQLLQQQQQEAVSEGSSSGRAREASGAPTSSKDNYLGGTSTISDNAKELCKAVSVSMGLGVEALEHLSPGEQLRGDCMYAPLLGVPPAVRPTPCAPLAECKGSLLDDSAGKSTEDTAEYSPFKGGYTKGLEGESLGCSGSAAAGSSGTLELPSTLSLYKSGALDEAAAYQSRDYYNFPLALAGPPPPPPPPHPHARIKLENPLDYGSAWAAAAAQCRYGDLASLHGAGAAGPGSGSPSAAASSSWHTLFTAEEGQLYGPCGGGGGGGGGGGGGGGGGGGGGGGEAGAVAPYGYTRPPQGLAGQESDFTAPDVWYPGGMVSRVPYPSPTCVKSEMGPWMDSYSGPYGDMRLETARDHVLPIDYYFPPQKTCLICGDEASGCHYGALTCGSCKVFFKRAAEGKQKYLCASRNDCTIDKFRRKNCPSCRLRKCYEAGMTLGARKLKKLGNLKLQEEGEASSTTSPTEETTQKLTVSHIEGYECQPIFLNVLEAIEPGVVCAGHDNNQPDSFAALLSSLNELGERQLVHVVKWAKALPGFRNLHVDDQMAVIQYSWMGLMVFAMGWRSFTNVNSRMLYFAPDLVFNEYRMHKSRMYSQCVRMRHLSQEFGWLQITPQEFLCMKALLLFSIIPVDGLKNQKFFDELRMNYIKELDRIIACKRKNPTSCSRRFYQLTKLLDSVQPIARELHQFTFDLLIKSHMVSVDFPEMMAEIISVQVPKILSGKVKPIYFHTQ
# test.method.notes: Antagonist activity at human AR expressed in human HeLa cells co-transfected with MMTV-Luc-Hyg after 48 hrs by transient-luciferase reporter gene assay
Measured IC50, listed per entry for reference.
Number first, unit second.

smiles_code=CC1(C)C(=O)N(c2ccc(C#N)c(Cl)c2)C(=S)N1c1cncc(S(N)(=O)=O)c1 assay_target="Androgen receptor (Homo sapiens)" quantity=IC50 value_measured="2000 nM"
smiles_code=CC1(C)C(=O)N(c2ccc(C#N)c(C(F)(F)F)c2)C(=S)N1c1ccccc1 assay_target="Androgen receptor (Homo sapiens)" quantity=IC50 value_measured="200 nM"
smiles_code=CC1(C)C(=O)N(c2ccc(C#N)c(Cl)c2)C(=S)N1c1cccc(S(N)(=O)=O)n1 assay_target="Androgen receptor (Homo sapiens)" quantity=IC50 value_measured="600 nM"
smiles_code=CC1(C)C(=O)N(c2ccc(C#N)c(C(F)(F)F)c2)C(=S)N1c1cncc(S(N)(=O)=O)c1 assay_target="Androgen receptor (Homo sapiens)" quantity=IC50 value_measured="1000 nM"

Retrieve IC50 measured for CC1(C)C(=O)N(c2ccc(C#N)c(C(F)(F)F)c2)C(=S)N1c1ccnc(S(N)(=O)=O)c1 and print it.
1000 nM

Entry CC1(C)C(=O)N(c2ccc(C#N)c(C(F)(F)F)c2)C(=S)N1c1cccc(S(N)(=O)=O)c1 needs its IC50 filled in; supply it.
300 nM

Item CC1(C)C(=O)N(c2ccc(C#N)c(C(F)(F)F)c2)C(=S)N1c1cccc(S(N)(=O)=O)n1 : provide IC50
700 nM

---

EC5 values by entry
# assay.target: Androgen receptor (Homo sapiens)
# stated.conditions: HeLa
# Description: Agonist activity at human AR expressed in human HeLa cells co-transfected with MMTV-Luc-Hyg after 48 hrs by transient-luciferase reporter gene assay

smiles_code=CC1(C)C(=O)N(c2ccc(C#N)c(Cl)c2)C(=S)N1c1cncc(S(N)(=O)=O)c1 value_measured="> 10 µM"
smiles_code=CC1(C)C(=O)N(c2ccc(C#N)c(C(F)(F)F)c2)C(=S)N1c1cccc(S(N)(=O)=O)n1 value_measured="> 10 µM"
smiles_code=CC1(C)C(=O)N(c2ccc(C#N)c(C(F)(F)F)c2)C(=S)N1c1ccccc1 value_measured="3 µM"
smiles_code=CC1(C)C(=O)N(c2ccc(C#N)c(C(F)(F)F)c2)C(=S)N1c1cncc(S(N)(=O)=O)c1 value_measured="> 10 µM"
smiles_code=CC1(C)C(=O)N(c2ccc(C#N)c(Cl)c2)C(=S)N1c1cccc(S(N)(=O)=O)c1 value_measured="> 10 µM"

Name the recorded EC5 of the compound listed here: CC1(C)NC(=S)N(c2ccc(C#N)c(Cl)c2)C1=O
0.0002 µM

---

# test.method.notes: Metabolic stability in rat liver microsomes assessed as compound remaining after 30 mins by LC-MS/MS analysis
# Type: ADME, Microsome
# stated.conditions: read-out: Stability
quantity: remaining at 0.5 h (%)
Response body: numeric value in %, unit text excluded.

State its remaining at 0.5 h: CC1(C)NC(=S)N(c2ccc(C#N)c(Cl)c2)C1=O
0.075
